Test system: Aspergillus flavus
assay protocol: MIC/MFC broth microdilution (CLSI)
condition parameters: ATCC204304
reported metric: MIC / MEC

molecule: CCC(C)n1ncn(-c2ccc(N3CCN(c4ccc(OCC5COC(Cn6cncn6)(c6ccc(Cl)cc6Cl)O5)cc4)CC3)cc2)c1=O (centres unmarked)
result: 0.5 µg/mL
//
molecule: CC[C@H](C)C[C@H](C)CCCCCCCCC(=O)N[C@H]1C[C@@H](O)[C@@H](NCCN)NC(=O)[C@@H]2[C@@H](O)CCN2C(=O)[C@H]([C@H](O)CCN)NC(=O)[C@H]([C@H](O)[C@@H](O)c2ccc(O)cc2)NC(=O)[C@@H]2C[C@@H](O)CN2C(=O)[C@H]([C@@H](C)O)NC1=O
result: 8 µg/mL
//
molecule: CC(=O)N1CCN(c2ccc(OCC3COC(Cn4ccnc4)(c4ccc(Cl)cc4Cl)O3)cc2)CC1 (centres unmarked)
result: 2 µg/mL
//
molecule: CCCCCCCCCCn1cc[n+](CC(O)(P(=O)(O)O)P(=O)(O)O)c1 [10-ZOL, Decyl-zoledronate]
result: 2 µg/mL
//
molecule: Nc1nc(=O)[nH]cc1F
result: >64 µg/mL
//
molecule: C[C@@H]1[C@H](O)[C@@H](C)/C=C/C=C/C=C/C=C/C=C/C=C/C=C/[C@H](O[C@@H]2O[C@H](C)[C@@H](O)[C@H](N)[C@@H]2O)C[C@@H]2O[C@](O)(C[C@@H](O)C[C@@H](O)[C@H](O)CC[C@@H](O)C[C@@H](O)CC(=O)O[C@H]1C)C[C@H](O)[C@H]2C(=O)O
result: 0.5 µg/mL
//
molecule: O=P(O)(O)C(O)(Cn1ccnc1)P(=O)(O)O [ZOL, zoledronate]
result: >256 µg/mL
//
molecule: C[C@@H](c1ncncc1F)[C@](O)(Cn1cncn1)c1ccc(F)cc1F
result: 0.5 µg/mL
